- MEASURED TARGET: α7–5HT3 mutant chimeric channels (Homo sapiens, UniProt P36544, Q139K)
- Sequence (P36544 23-224 Q139K, one chain of several): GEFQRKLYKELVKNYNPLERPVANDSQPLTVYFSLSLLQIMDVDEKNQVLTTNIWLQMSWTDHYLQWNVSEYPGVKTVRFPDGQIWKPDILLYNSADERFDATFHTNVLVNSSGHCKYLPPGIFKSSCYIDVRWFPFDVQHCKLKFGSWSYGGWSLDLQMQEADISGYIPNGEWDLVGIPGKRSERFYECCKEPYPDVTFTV
- PROTOCOL NOTES: cell-based
- Assay type: cell-based, human α7 nAChR LBD, mouse 5HT3 IPD
pEC50: −log10 of the molar value.
PROPERTY LABEL: pEC50

Q: Reported pEC50 for COC(=O)[C@H]1[C@@H](OC(=O)c2ccccc2)C[C@@H]2CC[C@H]1N2C : what is it?
A: < 4.52

----------
- MEASURED TARGET: coca-5HT3 (α7(L141G,G175K,Y210F,Y217F)–5HT3) (Homo sapiens, UniProt P36544, G175K/L141G/Y210F/Y217F)
- Sequence (P36544 23-224 L141G/G175K/Y210F/Y217F): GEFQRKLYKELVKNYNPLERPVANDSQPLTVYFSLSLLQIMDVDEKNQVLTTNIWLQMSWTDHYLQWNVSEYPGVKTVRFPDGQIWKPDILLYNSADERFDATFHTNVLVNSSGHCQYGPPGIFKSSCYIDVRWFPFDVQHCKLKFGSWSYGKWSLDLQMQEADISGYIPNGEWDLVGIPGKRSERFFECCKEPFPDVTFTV
- Sequence (P23979 242-489, further chain): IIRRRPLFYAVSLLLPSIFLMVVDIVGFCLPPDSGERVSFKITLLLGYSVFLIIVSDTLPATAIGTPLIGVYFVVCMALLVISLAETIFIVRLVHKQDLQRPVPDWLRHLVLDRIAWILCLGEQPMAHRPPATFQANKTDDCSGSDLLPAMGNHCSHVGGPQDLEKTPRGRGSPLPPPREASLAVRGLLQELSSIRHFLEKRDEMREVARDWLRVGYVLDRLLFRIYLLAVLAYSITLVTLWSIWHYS
- PROTOCOL NOTES: Membrane potential assay, coca-5HT3 in HEK293
- CONDITION SET: coca-5HT3; conc 1000 uM; ED Fig 3a
Here, each record is paired with measured Response data.
Please state the value as a number alone, without comment.

Examples with their reported Response follow.
Q: Reported Response for CCCCC/C=C\C/C=C\C/C=C\C/C=C\CCCC(=O)NCCO [Anandamide] : what is it?
A: 0.149

Q: Reported Response for N[C@@H](CC(=O)O)C(=O)O [Aspartate] : what is it?
A: 0.232

Q: Reported Response for N[C@H](CO)C(=O)O : what is it?
A: 0.145

Q: Reported Response for NCC(=O)O : what is it?
A: 0.232

Q: Reported Response for NCCc1c[nH]c2ccc(O)cc12 : what is it?
A: 0.112

Next:
Q: Reported Response for N[C@@H](CCC(=O)O)C(=O)O [Glutmate] : what is it?
A: 0.028

Q: Reported Response for NCCc1c[nH]cn1 : what is it?
A: 0.086

Q: Reported Response for NCCc1ccc(O)c(O)c1 : what is it?
A: 0.106

Q: Reported Response for NCCCC(=O)O : what is it?
A: 0.066

----------
- MEASURED TARGET: α7–GlyR mutant chimeric channels (Homo sapiens, UniProt P36544, P216I)
- Sequence (P36544 23-230 P216I): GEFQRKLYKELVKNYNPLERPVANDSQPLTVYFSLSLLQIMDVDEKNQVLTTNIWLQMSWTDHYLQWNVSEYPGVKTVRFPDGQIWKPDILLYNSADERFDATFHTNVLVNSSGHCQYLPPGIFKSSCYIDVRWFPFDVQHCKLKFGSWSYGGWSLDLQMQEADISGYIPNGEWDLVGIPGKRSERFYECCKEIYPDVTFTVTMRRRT
- Sequence (P23415 248-457 partner): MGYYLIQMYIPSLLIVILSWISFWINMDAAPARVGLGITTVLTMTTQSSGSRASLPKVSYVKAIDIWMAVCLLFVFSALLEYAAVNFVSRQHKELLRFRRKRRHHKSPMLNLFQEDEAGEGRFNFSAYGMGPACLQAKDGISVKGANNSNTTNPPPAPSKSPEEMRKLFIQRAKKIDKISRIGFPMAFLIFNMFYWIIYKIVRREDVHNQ
- PROTOCOL NOTES: Membrane potential assay screen, mutant α7–GlyR chimeric channels
- Format: cell-based
- CONDITION SET: EC50 at α7 GlyR P216I, Avg, sheet 1d
PROPERTY LABEL: EC50

Q: # value lookup — system α7–GlyR mutant chimeric channels (Homo sapiens, UniProt P36544, P216I), readout EC50, item COC(=O)[C@H]1[C@@H](OC(=O)c2ccccc2)C[C@@H]2CC[C@H]1N2C
A: > 30 µM

----------
- MEASURED TARGET: α7–GlyR mutant chimeric channels (Homo sapiens, UniProt P36544, L141G)
- Sequence (P36544 23-230 L141G): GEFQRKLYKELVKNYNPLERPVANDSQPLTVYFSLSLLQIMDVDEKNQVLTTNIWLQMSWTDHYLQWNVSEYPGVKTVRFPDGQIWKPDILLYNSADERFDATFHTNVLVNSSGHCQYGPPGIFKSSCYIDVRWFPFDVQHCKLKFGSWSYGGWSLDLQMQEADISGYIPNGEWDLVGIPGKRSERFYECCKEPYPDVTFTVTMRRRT
- Sequence (P23415 247-457 partner): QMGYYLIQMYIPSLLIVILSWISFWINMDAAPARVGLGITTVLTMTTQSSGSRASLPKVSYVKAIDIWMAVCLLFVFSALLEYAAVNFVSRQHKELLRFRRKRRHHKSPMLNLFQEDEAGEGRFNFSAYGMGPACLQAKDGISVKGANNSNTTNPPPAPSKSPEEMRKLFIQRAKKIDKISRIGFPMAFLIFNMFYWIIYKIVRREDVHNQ
- PROTOCOL NOTES: Membrane potential assay screen, mutant α7–GlyR chimeric channels
- Type: cell-based
- CONDITION SET: EC50 at α7 GlyR L141G, Avg, sheet 1d
PROPERTY LABEL: EC50 (µM)
Respond numerically; units are µM and should not be typed.

Q: Reported EC50 for COC(=O)[C@H]1[C@@H](OC(=O)c2ccccc2)C[C@@H]2CC[C@H]1N2C : what is it?
A: 8.3

----------
- MEASURED TARGET: coca-5HT3 (α7(L141G,G175K,Y210F,Y217F)–5HT3) (Homo sapiens, UniProt P36544, G175K/L141G/Y210F/Y217F)
- PROTOCOL NOTES: Membrane potential assay, coca-5HT3 in HEK293
- CONDITION SET: coca-5HT3; conc 30 uM; ED Fig. 2c
Here, each record is paired with measured Response data.
Please state the value as a number alone, without comment.

Q: Reported Response for CC(=O)Oc1ccc2c3c1O[C@H]1[C@@H](OC(C)=O)C=C[C@H]4[C@@H](C2)N(C)CC[C@@]341 [heroin] : what is it?
A: 0.105

Q: Reported Response for CN[C@@H](C)Cc1ccccc1 [methamphetamine] : what is it?
A: 0.204
